outcome_measure: melting point

[[record]]
compound = "CC(=O)c1cccc(N2CCN(CCCCOc3ccc4ccc(=O)[nH]c4n3)CC2)c1Cl"
recorded_result = "108 to 110 °C"

[[record]]
compound = "O=c1[nH]c2ccc(Cl)cc2n1-c1ccc(Cl)cc1"
recorded_result = "239 °C"

[[record]]
compound = "Nc1cccc(S(=O)(=O)Nc2ccccc2NNC=O)c1"
recorded_result = "120 °C"

[[record]]
compound = "COc1cc(-c2ccc(C)cc2)c(C(C)=NOCc2ccc([N+](=O)[O-])cc2)cc1O"
recorded_result = "106 to 109 °C"

[[record]]
compound = "CS(=O)(=O)c1ccccc1-c1cc(F)cc(OCc2ccc3c(-c4ccoc4)cc(C#N)nc3c2)c1"
recorded_result = "186 to 187 °C"

[[record]]
compound = "CCOC(CNC1=Nc2sc(CC)cc2C(c2ccccc2Cl)=NC1)OCC"
recorded_result = "124 to 127 °C"

[[record]]
compound = "CCCCc1nc2c(N)nc3ccccc3c2n1CCCCCC(=O)c1ccccc1"
recorded_result = "149 to 151 °C"

[[record]]
compound = "CCN1C(=O)C(NC(=O)C(F)(F)F)CCc2c1ccc(Nc1ncc(Cl)c(N[C@H]3[C@@H](C(N)=O)[C@@H]4C=C[C@H]3C4)n1)c2OC (some centres not stated)"
recorded_result = "167 to 176 °C"

[[record]]
compound = "O=C(O)COc1cc(Br)c2oc3cccc(F)c3c(=O)c2c1"
recorded_result = "220 to 223 °C"

[[record]]
compound = "C=CCN1C(=O)C(C)(CN2CCN(c3ccccc3OC)CC2)N=C1c1cccnc1 (configuration not stated)"
recorded_result = "66 to 69 °C"

[[record]]
compound = "N=C(NO)c1ccc(-c2cccc(-c3nc4cc(C(=N)NO)ccc4[nH]3)c2O)cc1"
recorded_result = "322 to 325 °C"

[[record]]
compound = "CNc1c(C/C=C(\\C)CCC(=O)O)c(OC)c(C)c2c1C(=O)OC2"
recorded_result = "121 to 124 °C"

[[record]]
compound = "O=C(C1CCN(c2ccncc2)CC1)N1CCN(S(=O)(=O)c2ccc(-c3ccccn3)cc2)CC1"
recorded_result = "224 to 226 °C"

[[record]]
compound = "CNC(=O)c1c(NC(=O)COC)c(OC)c(C(=O)NC)c(NC(=O)COC)c1OC"
recorded_result = "275 to 276 °C"

[[record]]
compound = "O=c1c2c(c1=O)Nc1c(cc(Cl)c(Cl)c1Cl)N2"
recorded_result = "> 360 °C"

[[record]]
compound = "CCCCOc1coc(CO)cc1=O"
recorded_result = "68 to 73 °C"

[[record]]
compound = "BrCc1cc2ccccc2cc1CBr"
recorded_result = "147 to 148 °C"


The origin of these recorded values is a melting point compilation (Tetko et al.; mined from patent text by program, amines drawn as free bases though some values may be those of a salt).
